biological target: D(1A) dopamine receptor (Homo sapiens); test: HTS Assay for Allosteric Agonists of the Human D1 Dopamine Receptor: Primary Screen for Antagonists (AID 488983); conditions: D1 receptor cell assay, antagonist mode, qHTS titration; series mostly up to 41.8 µM;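 also: calcium flux response to an EC80 dopamine challenge measured with no-wash dye; nearly all actives have a fitted effect of over 65% in size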
Results filed as inconclusive are left out. Active and inactive are the calls of the source. Calls follow the shape of the dose curve; as a rule, active = well fitted inhibition curve with a large enough effect; inconclusive = small, poorly fitted or top-dose-only effect, or effect the other way; inactive = flat fitted curve, though single readings scatter.
Please reply with one of these outcomes: active, inactive

- COMPOUND: "Nc1nc2c(ncn2COC(CO)CO)c(=O)[nH]1"
  CATEGORY: "inactive"

Task item: For this compound, state the assay outcome: "CC(C)C(=O)Nc1ccc([N+](=O)[O-])c(C(F)(F)F)c1"
Reply: inactive

Task item: Consider next the compound CCN1CCCC1CNC(=O)c1cc(S(=O)(=O)CC)c(N)cc1OC (stereo unspecified) in the same way.
Reply: inactive

Task item: Consider next the compound NC(CO)C(=O)NNCc1ccc(O)c(O)c1O (stereo unspecified) in the same way.
Reply: inactive

Task item: Consider next the compound "Nc1c2c(nc3ccccc13)CCCC2" in the same way.
Reply: inactive

Task item: Consider next the compound "NCCS(=O)(=O)O" in the same way.
Reply: inactive

Task item: Consider next the compound "CN1CCC(=C2c3ccccc3CC(=O)c3sccc32)CC1" in the same way.
Reply: active

Task item: Consider next the compound CCC1(C)CC(=O)NC1=O (stereo unspecified) in the same way.
Reply: inactive

Task item: Consider next the compound "NC(=O)NO" in the same way.
Reply: inactive

Task item: Consider next the compound CC(C(=O)O)c1cccc(C(=O)c2ccccc2)c1 (stereo unspecified) in the same way.
Reply: inactive

Task item: Consider next the compound "CN(C)CCC=C1c2ccccc2C=Cc2ccccc21" in the same way.
Reply: active

###

assay: Quantitative High-Throughput drug screen in 47 multiple myeloma cell lines against the NCATS MIPE library collection: OPM1_PLB cell viability assay (AID 1918989); details: CellTiter-Glo, 48 h; series mostly up to 45.8 µM; also: nearly all actives have a fitted effect of over 40% in size; also: potency is read from the fitted curve at half-maximal effect
Records with an inconclusive call do not appear. Active and inactive are the calls of the source. The call rests on the fitted dose curve; in most records, active means well fitted cell-killing curve with a large enough effect; inconclusive means small, poorly fitted or top-dose-only effect, or effect the other way; inactive means no such curve, though single readings can be large or run the other way.
PROPERTY: Potency

Examples with their reported Potency follow.
- MOLECULE: "Clc1ccc2nsnc2c1NC1=NCCN1"
  PROPERTY: "Potency"
  RESULT: "inactive"
- MOLECULE: "O=C1N(c2ccccc2)c2ccccc2C1(Cc1ccncc1)Cc1ccncc1"
  PROPERTY: "Potency"
  RESULT: "inactive"
- MOLECULE: "CC[N+](CC)(CC)CCOc1cccc(OCC[N+](CC)(CC)CC)c1OCC[N+](CC)(CC)CC"
  PROPERTY: "Potency"
  RESULT: "inactive"
- MOLECULE: "Cn1cnc2c1c(=O)[nH]c(=O)n2C"
  PROPERTY: "Potency"
  RESULT: "10.5 µM (active)"
- MOLECULE: "CC(C)C(=O)Nc1ccc([N+](=O)[O-])c(C(F)(F)F)c1"
  PROPERTY: "Potency"
  RESULT: "8.33 µM (active)"
- MOLECULE: "CN(C)CCC=C1c2ccccc2C=Cc2ccccc21"
  PROPERTY: "Potency"
  RESULT: "18.7 µM (active)"
- MOLECULE: "O=c1c(O)c(-c2ccc(O)c(O)c2)oc2cc(O)cc(O)c12"
  PROPERTY: "Potency"
  RESULT: "20.9 µM (active)"
- MOLECULE: "COc1ccccc1N1CCN(CC(O)COc2cccc3ccccc23)CC1 (stereo unspecified)"
  PROPERTY: "Potency"
  RESULT: "14.8 µM (active)"

Task item: Look at this molecule and give its reported Potency. "O=C(c1ccc(F)cc1)C1CCN(CCn2c(=O)[nH]c3ccccc3c2=O)CC1"
Reply: inactive

Task item: Consider next the molecule CCc1cccc2c3c([nH]c12)C(CC)(CC(=O)O)OCC3 (stereo unspecified) in the same way.
Reply: inactive

Task item: Consider next the molecule "CN1CCC(=C2c3ccccc3C=Cc3ccccc32)CC1" in the same way.
Reply: 18.7 µM (active)
